Target: Recombinant human His-tagged Trim24-PHD-bromodomain (Homo sapiens, UniProt O15164)
Construct: Recombinant human His-tagged Trim24-PHD-bromodomain (produced in-house)
Sequence (O15164 824-1006 limits assumed): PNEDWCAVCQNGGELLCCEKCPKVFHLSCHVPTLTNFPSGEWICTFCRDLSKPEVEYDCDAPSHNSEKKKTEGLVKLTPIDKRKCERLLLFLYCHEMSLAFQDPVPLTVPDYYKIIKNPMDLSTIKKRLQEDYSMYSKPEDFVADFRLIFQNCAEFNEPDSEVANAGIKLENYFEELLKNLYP
Assay: Trim24 AlphaScreen Assay
Details: 5 nM Trim24 protein, 15 nM biotinylated H3K23ac (1-33aa) peptide
pIC50: −log10 of the molar value.
So I've got a bunch of compounds here, and I need their pIC50 values.

Example entries begin here.
# Compound, Result
records = [
    ("Cc1n[nH]cc1S(=O)(=O)Nc1cc2c(cc1Oc1cccc(OCc3ccccc3)c1)n(C)c(=O)n2C [Example 48]", "6.00 to 7.00"),
    ("Cc1cc(S(=O)(=O)Nc2cc3c(cc2Oc2cccc(OCc4ccccc4)c2)n(C)c(=O)n3C)n(C)n1 [Example 79]", "< 6.00"),
    ("CCCOc1cc(OCCCOC)cc(Oc2cc3c(cc2NS(=O)(=O)c2ccc(OC)c(OC)c2)n(C)c(=O)n3C)c1 [Example 138]", "7.00 to 8.00"),
    ("Cn1c(=O)n(C)c2cc(Oc3cccc(OCc4ccccc4)c3)c(NS(=O)(=O)c3ccsc3)cc21 [Example 21]", "< 6.00"),
]

Your task in this section: give pIC50 for each listed record.
1. CCCOc1cc(OCCCOC)cc(Oc2cc3c(cc2NS(=O)(=O)c2ccccc2)n(C)c(=O)n3C)c1 [Example 163]
2. CCn1nccc1S(=O)(=O)Nc1cc2c(cc1Oc1cccc(OCc3ccccc3)c1)n(C)c(=O)n2C [Example 42]
3. C=CCOc1cccc(Oc2cc3c(cc2NS(=O)(=O)c2ccc(OC)c(NC(C)=O)c2)n(C)c(=O)n3C)c1 [Example 143]
4. CCCOc1cc(OCCCCCCN(C)C)cc(Oc2cc3c(cc2NS(=O)(=O)c2cn(C)cn2)n(C)c(=O)n3C)c1 [Example 188]
5. CCCOc1cccc(Oc2cc3c(cc2NS(=O)(=O)c2cccnc2)n(C)c(=O)n3C)c1 [Example 99]
6. CC(C)COc1cccc(Oc2cc3c(cc2NS(=O)(=O)c2cnn(C)c2)n(C)c(=O)n3C)c1 [Example 60]

["6.00 to 7.00", "6.00 to 7.00", "6.00 to 7.00", "7.00 to 8.00", "7.00 to 8.00", "7.00 to 8.00"]
